Entries and their pIC50 values follow.
# system tested: PASK (Homo sapiens (Human), UniProt Q96RG2)
# Sequence (Q96RG2 999-1251): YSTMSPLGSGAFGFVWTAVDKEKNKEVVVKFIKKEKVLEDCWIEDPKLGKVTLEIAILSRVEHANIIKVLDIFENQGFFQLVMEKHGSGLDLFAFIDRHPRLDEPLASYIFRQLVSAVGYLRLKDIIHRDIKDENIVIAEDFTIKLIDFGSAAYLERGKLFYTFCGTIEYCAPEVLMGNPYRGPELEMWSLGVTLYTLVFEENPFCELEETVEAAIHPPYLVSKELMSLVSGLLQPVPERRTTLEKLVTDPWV
pIC50: −log10 of the molar value.

Could you tell me which pIC50 is on file for O=c1cc(-c2ccc(C(F)(F)F)cc2)[nH]c2c(-c3ccccn3)cnn12 [Example 173] ?
≥ 5.00

What pIC50 value was documented for this compound, CCCNC(=O)c1c(N)nn2c(=O)cc(-c3ccc(Cl)cc3)[nH]c12 [Example 225] ?
≥ 5.00

Others:
Need pIC50, item O=c1cc(-c2ccc3[nH]ncc3c2)[nH]c2c(-c3ccccn3)c(O)nn12 [Example 187]
≥ 5.00

Returns the measured pIC50 for the input compound. Input: Cc1cc2[nH]nnc2cc1-c1cc(=O)n2nc(N)c(-c3ccccn3)c2[nH]1 [Example 238]
≥ 5.00

Which pIC50 is listed for O=c1cc(-c2ccc(Cl)cc2Cl)[nH]c2c(-c3ccccn3)cnn12 [Example 124] ?
≥ 5.00

I would be grateful if you could share the reported pIC50 for Nc1nn2c(=O)cc(-c3ccc(Cl)c(Cl)c3)[nH]c2c1-c1ccccn1 [Example 153] .
≥ 5.00

Can you share its pIC50? I mean this compound: COc1c(-c2cc(=O)n3ncc(-c4ccccn4)c3[nH]2)ccc2[nH]nnc12 [Example 245]
≥ 5.00

Please report the recorded pIC50 for N#Cc1cnn2c(=O)cc(-c3ccc4c(c3)OCCO4)[nH]c12 [Example 113] .
≥ 5.00
